Provide the reported percent inhibition of TTC39C mRNA of each item.
Test system: murine TTC39C mRNA
test_name: Dose-dependent antisense inhibition of murine TTC39C in mouse primary hepatocytes
Format: cell-based
assay_context: 2000.0 nM, electroporation, ~16 h
Oligonucleotides are written 5' to 3', each unit as a sugar letter and its base; * is a phosphorothioate linkage, no mark a phosphodiester; rarer units and linkages stand in square brackets, end groups in braces. Plain capitals give the bases only. e = 2'-O-(2-methoxyethyl) (MOE); [5mC] = 5-methylcytosine; d = 2'-deoxy (DNA)

// known answers, use as guide
{"substance": "ISIS 474629: 5-10-5 MOE gapmer antisense oligonucleotide targeting murine TTC39C (antisense eG*eA*eT*e[5mC]*eA*d[5mC]*dT*dG*d[5mC]*d[5mC]*dG*dT*d[5mC]*d[5mC]*dA*eA*eA*eG*e[5mC]*eA)", "percent inhibition of TTC39C mRNA": "42%"}
{"substance": "ISIS 474598: 5-10-5 MOE gapmer antisense oligonucleotide targeting murine TTC39C (antisense e[5mC]*e[5mC]*e[5mC]*eA*e[5mC]*d[5mC]*dT*dT*dT*dT*dA*dT*dG*dT*dA*eG*eG*e[5mC]*e[5mC]*eG)", "percent inhibition of TTC39C mRNA": "60%"}
{"substance": "ISIS 474604: 5-10-5 MOE gapmer antisense oligonucleotide targeting murine TTC39C (antisense eT*eG*eT*e[5mC]*eA*d[5mC]*dT*dG*d[5mC]*d[5mC]*dG*dT*d[5mC]*d[5mC]*dA*eA*eA*eG*e[5mC]*eA)", "percent inhibition of TTC39C mRNA": "84%"}

Now turn to the next substance.
Which percent inhibition of TTC39C mRNA value is on record for ISIS 474589: 5-10-5 MOE gapmer antisense oligonucleotide targeting murine TTC39C (antisense eT*e[5mC]*e[5mC]*eG*eA*dA*dA*dT*d[5mC]*dG*d[5mC]*dT*d[5mC]*dA*dG*e[5mC]*e[5mC]*eT*eG*e[5mC]) ? 97%
